Kindly supply the reported Max OD (%) (Figure 3f) values for the records listed here.
System: E. coli DH5α cells
Experiment: Inhibition of bacterial cell growth by CPPs (Max OD600 relative to control)
Type: cell-based, Escherichia coli
Details: E. coli DH5α diluted 1/1000 in LB, 5 μg TAMRA-CPP (0.1 μg/μL), OD600 monitored 18 h; max OD of treated cells / max OD of control cells; replicate 2
Where no end group is shown, it is not given here.
Answer with a number only, understood to be in %.

For this substance ( Tat (GRKKRRQRRRPPQRKC; also: TAMRA label, site not given here) [CPP 67, TAMRA-labeled CPP of the 98-CPP library] ), measured Max OD (%) (Figure 3f) is 54.071

For this substance ( Tat49-57 (RKKRRQRRR; also: TAMRA label, site not given here) [CPP 45, TAMRA-labeled CPP of the 98-CPP library] ), measured Max OD (%) (Figure 3f) is 62.3077

For this substance ( CTP (GGRRARRRRRR; also: TAMRA label, site not given here) [CPP 96, TAMRA-labeled CPP of the 98-CPP library] ), measured Max OD (%) (Figure 3f) is 88.7755

For this substance ( Tat48-57 (GRKKRRQRRR; also: TAMRA label, site not given here) [CPP 70, TAMRA-labeled CPP of the 98-CPP library] ), measured Max OD (%) (Figure 3f) is 82.6722
